Target: T1, Human IL-23 (human, UniProt P29460 23-328; Q9NPF7 20-189)
T1 construct: Heterodimer of IL-12p40 covalently linked to IL-23p19, purchased (Ebiosciences or RnD Systems); also called hIL-23; rhIL23
T1 sequence 1: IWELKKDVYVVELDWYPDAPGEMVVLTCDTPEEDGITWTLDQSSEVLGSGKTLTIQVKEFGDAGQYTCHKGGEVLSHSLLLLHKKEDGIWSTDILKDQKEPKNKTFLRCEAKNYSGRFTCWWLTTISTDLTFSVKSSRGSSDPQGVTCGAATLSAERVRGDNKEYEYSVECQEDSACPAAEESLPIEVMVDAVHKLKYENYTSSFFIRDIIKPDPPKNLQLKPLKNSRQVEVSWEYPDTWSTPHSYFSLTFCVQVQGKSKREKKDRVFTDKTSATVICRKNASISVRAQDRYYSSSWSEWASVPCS
T1 sequence 2: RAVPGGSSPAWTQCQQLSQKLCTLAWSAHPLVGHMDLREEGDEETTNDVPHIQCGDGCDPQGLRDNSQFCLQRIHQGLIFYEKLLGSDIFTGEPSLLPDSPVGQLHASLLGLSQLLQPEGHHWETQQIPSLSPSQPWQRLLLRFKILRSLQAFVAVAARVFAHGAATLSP
Assay: SPR (Biacore 3000), antibody captured on Protein A, IL-23 as analyte, 1:1 Langmuir fit
Let's look at some binders and their measured Kd.
measuredQuantity: Kd (nM)

binder	resultUnit	experimentalResult
20-4 (antibody, human IgG1, kappa, V domains shown, Humanized form of E11E7; also called humanized antibody 20-4) VH: EVQLQQWGAGLLKPSETLSLTCAVYGFSLISYNVHWIRQPPGKGLEWIGVIWTGGSTDYNSVLKSRVTISVDTSKNQFSLKLSSVTAADTAVYYCARDKYGLFPGYFDYWGQGTLVTVSS VL: EIVLTQSPATLSLSPGERATLSCKPSQSLLSSGNRKNYLAWYQQKPGQAPRLLIYYASTRQSGIPDRFSGSGSGTDFTLTISRLEPEDFAVYYCLQHFNYPWTFGGGTKVEIKR	nM	0.47
1-4 (antibody, human IgG1, kappa, V domains shown, Humanized form of E11E7; also called humanized antibody 1-4) VH: EVQLQQWGAGLLKPSETLSLTCAVYGGSFSSYNVHWIRQPPGKGLEWIGVIWTGGSTDYNSVLKSRVTISRDTSKNQFSLKLSSVTAADTAVYYCARDKYGLFPGYFDYWGQGTLVTVSS VL: EIVLTQSPATLSLSPGERATLSCKPSQSLLSSGNRKNYLAWYQQKPGQAPRLLIYYASTRQSGIPDRFSGSGSGTDFTLTISRLEPEDFAVYYCLQHFNYPWTFGGGTKVEIKR	nM	2.11
21-4 (antibody, human IgG1, kappa, V domains shown, Humanized form of E11E7; also called humanized antibody 21-4) VH: EVQLQQWGAGLLKPSETLSLTCAVYGFSLISYNVHWIRQPPGKGLEWIGVIWTGGSTDYNSVLKSRVTISRDTSKNQFSLKLSSVTAADTAVYYCARDKYGLFPGYFDYWGQGTLVTVSS VL: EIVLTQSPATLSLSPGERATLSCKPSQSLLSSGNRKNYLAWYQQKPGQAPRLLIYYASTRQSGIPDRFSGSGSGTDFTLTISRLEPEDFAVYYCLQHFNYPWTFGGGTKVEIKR	nM	0.388
8-22 (antibody, human IgG1, kappa, V domains shown, Humanized form of E11E7; also called humanized antibody 8-22) VH: QVQLQESGPGLVKPSETLSLTCTVSGFSLISYNVHWIRQPPGKGLEWIGVIWTGGSTDYNPSLKSRVTISRDTSKNQFSLKLSSVTAADTAVYYCARDKYGLFPGYFDYWGQGTLVTVSS VL: DIVMTQSPDSLAVSLGERATINCKPSQSLLSSGNRKNYLAWYQQKPGQPPKLLIYYASTRQSGVPDRFSGSGSGTDFTLTISSLQAEDVAVYYCLQHFNYPWTFGQGTKLEIKR	nM	0.421
6-22 (antibody, human IgG1, kappa, V domains shown, Humanized form of E11E7; also called humanized antibody 6-22) VH: QVQLQESGPGLVKPSETLSLTCTVSGFSISSYNVHWIRQPPGKGLEWIGVIWTGGSTDYNPSLKSRVTISRDTSKNQFSLKLSSVTAADTAVYYCARDKYGLFPGYFDYWGQGTLVTVSS VL: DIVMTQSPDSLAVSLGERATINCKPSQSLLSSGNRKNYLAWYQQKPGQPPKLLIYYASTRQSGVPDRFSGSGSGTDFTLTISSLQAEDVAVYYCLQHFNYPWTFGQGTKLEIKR	nM	0.86

Data origin: patent US20130115166A1
